Target: T1, cynomolgus IL-18BP (cynomolgus monkey)
T1 construct: also called cyno IL-18BP; cyIL-18BP
T1 chain: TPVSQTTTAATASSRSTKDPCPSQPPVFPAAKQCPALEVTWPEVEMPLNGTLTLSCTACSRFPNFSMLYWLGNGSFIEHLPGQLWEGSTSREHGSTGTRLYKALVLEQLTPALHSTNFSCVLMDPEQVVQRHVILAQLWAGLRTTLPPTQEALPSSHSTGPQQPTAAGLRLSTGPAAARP
Test: BLI, apparent KD
Field: label. Allowed values: true (1) (Kd < 1 nM) or false (0) (Kd >= 1 nM).

Challenge: Quick check: Kd of SA301a HC-N100bV (antibody, name in Kabat numbering, V domains shown, IgG1 kappa) VH: QVQLQESGPGLVKPSQTLSLTCTVSGYSITSDYNSHWIRQPPGKGLEWIGYIHYSGSTNYNPSLKSRVTISRDTSKNQFSLKLSSVTAADTAVYYCARNYGSIYVVYFDYWGQGTLVTVSS VL: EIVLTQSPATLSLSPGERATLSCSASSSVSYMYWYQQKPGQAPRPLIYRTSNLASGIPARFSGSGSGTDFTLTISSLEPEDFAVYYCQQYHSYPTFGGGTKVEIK under 1 nM?
Response given: false (0)

Challenge: Another binder to check: SA301a HC-N100bY (antibody, name in Kabat numbering, V domains shown, IgG1 kappa) VH: QVQLQESGPGLVKPSQTLSLTCTVSGYSITSDYNSHWIRQPPGKGLEWIGYIHYSGSTNYNPSLKSRVTISRDTSKNQFSLKLSSVTAADTAVYYCARNYGSIYVYYFDYWGQGTLVTVSS VL: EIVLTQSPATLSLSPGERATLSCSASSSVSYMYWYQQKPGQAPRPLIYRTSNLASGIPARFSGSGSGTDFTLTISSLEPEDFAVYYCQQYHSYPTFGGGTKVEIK
Response given: true (1)

Challenge: Another binder to check: SA301a HC-N100bH (antibody, name in Kabat numbering, V domains shown, IgG1 kappa) VH: QVQLQESGPGLVKPSQTLSLTCTVSGYSITSDYNSHWIRQPPGKGLEWIGYIHYSGSTNYNPSLKSRVTISRDTSKNQFSLKLSSVTAADTAVYYCARNYGSIYVHYFDYWGQGTLVTVSS VL: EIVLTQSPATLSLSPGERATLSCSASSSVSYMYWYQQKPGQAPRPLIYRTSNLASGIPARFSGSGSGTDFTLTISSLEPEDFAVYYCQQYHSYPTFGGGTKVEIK
Response given: false (0)

Challenge: Another binder to check: SA301a HC-I99E (antibody, name in Kabat numbering, V domains shown, IgG1 kappa) VH: QVQLQESGPGLVKPSQTLSLTCTVSGYSITSDYNSHWIRQPPGKGLEWIGYIHYSGSTNYNPSLKSRVTISRDTSKNQFSLKLSSVTAADTAVYYCARNYGSEYVNYFDYWGQGTLVTVSS VL: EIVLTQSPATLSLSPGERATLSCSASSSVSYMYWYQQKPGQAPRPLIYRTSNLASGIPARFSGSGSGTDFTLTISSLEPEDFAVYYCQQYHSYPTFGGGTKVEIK
Response given: false (0)

Challenge: Another binder to check: SA301a HC-Y100E (antibody, V domains shown) VH: QVQLQESGPGLVKPSQTLSLTCTVSGYSITSDYNSHWIRQPPGKGLEWIGYIHYSGSTNYNPSLKSRVTISRDTSKNQFSLKLSSVTAADTAVYYCARNYGSIEVNYFDYWGQGTLVTVSS VL: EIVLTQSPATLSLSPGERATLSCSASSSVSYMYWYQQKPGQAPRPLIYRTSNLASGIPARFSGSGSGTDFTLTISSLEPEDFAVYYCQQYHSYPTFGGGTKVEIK
Response given: false (0)

Hey, just so you know, these numbers are from patent US20250368745A1.
